Assign inhibition at 1000 µM to each entry below.
Target: hMAO-B (Homo sapiens)
Construct: purchased Sigma-Aldrich (Steinheim, Germany)
Sequence (P27338 whole entry): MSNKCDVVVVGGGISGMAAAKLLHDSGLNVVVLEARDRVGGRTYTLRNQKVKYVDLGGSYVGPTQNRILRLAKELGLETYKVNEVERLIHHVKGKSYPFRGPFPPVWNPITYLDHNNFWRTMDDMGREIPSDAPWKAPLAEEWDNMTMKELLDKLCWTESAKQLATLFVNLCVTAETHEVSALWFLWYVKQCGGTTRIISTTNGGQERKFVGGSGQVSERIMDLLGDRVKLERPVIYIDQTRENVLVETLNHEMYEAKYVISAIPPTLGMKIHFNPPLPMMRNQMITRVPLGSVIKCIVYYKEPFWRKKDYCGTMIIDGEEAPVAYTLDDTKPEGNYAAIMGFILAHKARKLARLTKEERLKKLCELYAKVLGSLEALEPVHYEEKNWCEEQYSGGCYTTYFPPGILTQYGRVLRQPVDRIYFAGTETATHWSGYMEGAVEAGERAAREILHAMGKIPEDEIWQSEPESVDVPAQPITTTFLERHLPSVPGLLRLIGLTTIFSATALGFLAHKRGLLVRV
Assay: biochemical
Details: 10^−3 M; read-out: MAO-B % Inhibition
Note: unit % is implicit; provide only the numeric part.

Challenge: Look up inhibition at 1000 µM: "Fc1ccc(N2CCN(c3ccc(C=NNc4nc(-c5ccccc5)cs4)cc3)CC2)cc1"
Response given: 78.2

Challenge: Please report the recorded inhibition at 1000 µM for "O=[N+]([O-])c1ccc(-c2csc(NN=Cc3ccc(N4CCN(c5ccc(F)cc5)CC4)cc3)n2)cc1" .
Response given: 75.7

Challenge: Consider the compound shown here: "COc1ccc(-c2csc(NN=Cc3ccc(N4CCN(c5ccc(F)cc5)CC4)cc3)n2)cc1" What is its recorded inhibition at 1000 µM?
Response given: 85.1

Challenge: Would you mind telling me what inhibition at 1000 µM value was observed for "Fc1ccc(-c2csc(NN=Cc3ccc(N4CCN(c5ccc(F)cc5)CC4)cc3)n2)cc1" ?
Response given: 57.3

Challenge: # input compound: "Cc1ccc(-c2csc(NN=Cc3ccc(N4CCN(c5ccc(F)cc5)CC4)cc3)n2)cc1" ; wanted: its inhibition at 1000 µM
Response given: 60.8

Challenge: Fill blank: measured inhibition at 1000 µM of the compound "Cc1ccc(-c2csc(NN=Cc3ccc(N4CCN(c5ccc(F)cc5)CC4)cc3)n2)c(C)c1" is ____.
Response given: 69.2

Challenge: Item under review: "Fc1ccc(N2CCN(c3ccc(C=NNc4nc(-c5ccc(Cl)cc5Cl)cs4)cc3)CC2)cc1" . Reported inhibition at 1000 µM?
Response given: 55.1

Challenge: What value of inhibition at 1000 µM has been recorded for this entry: "N#Cc1ccc(-c2csc(NN=Cc3ccc(N4CCN(c5ccc(F)cc5)CC4)cc3)n2)cc1"
Response given: 58.1

Challenge: Could you share which inhibition at 1000 µM value was measured for "Fc1ccc(N2CCN(c3ccc(C=NNc4nc(-c5ccc(C(F)(F)F)cc5)cs4)cc3)CC2)cc1" ?
Response given: 59.1

Challenge: // inhibition at 1000 µM lookup, key: "Fc1ccc(N2CCN(c3ccc(C=NNc4nc(-c5ccc(Cl)cc5)cs4)cc3)CC2)cc1"
Response given: 68.1

Challenge: Could you share which inhibition at 1000 µM value was measured for "Fc1ccc(N2CCN(c3ccc(C=NNc4nc(-c5ccc(Br)cc5)cs4)cc3)CC2)cc1" ?
Response given: 68.9
